Where do the numbers come from? From the supplement of paper PMC6763611.

System: Plasmodium falciparum NF54
assay.procedure: growth inhibition relative to untreated control; higher = more inhibition
particulars: 1 µM; MM + chorismate end-products (CM screening medium); 72 h
readout.label: growth inhibition (%)
State the answer as a number, implicitly in %.

Worked set:
> print(dat)
                                   molecule  unit.string  result.number
1         Cc1ccc2[nH]c3c(NCCN(C)C)ncnc3c2c1            %           97.6
2  O=C(NCCN1CCCC1)c1cc(NCCN2CCOCC2)nc2ccc(Cl)cc12            %           97.7
3    CCCn1c(NC(=O)c2ccc3ccccc3n2)nc2ccccc21            %           38.2

Prompt line: Short answer please: growth inhibition, Plasmodium falciparum NF54, entry "Cn1c(=O)c2c(S(C)(=O)=O)snc2n(C)c1=O"
Response line: 23.6

Prompt line: Look up growth inhibition with Plasmodium falciparum NF54 for this molecule: O=C(Nc1nc(-c2ccccn2)cs1)C1CC1c1ccccc1F (stereo unspecified)
Response line: 16

Prompt line: I'm curious: which growth inhibition was measured for "COc1cccc(NC(=O)c2c(NC(=O)c3cccnc3)sc3c2CCC3)c1" tested on Plasmodium falciparum NF54?
Response line: 47.5

Prompt line: Provide the documented growth inhibition with Plasmodium falciparum NF54 as the system for "CC(=O)NC[C@H]1CN(c2ccc(N3CCSCC3)c(F)c2)C(=O)O1"
Response line: 21.8

Prompt line: Notebook: pull reported growth inhibition for Plasmodium falciparum NF54, entry COc1ccc(C2CC(c3cccs3)=NN2C(=O)c2ccco2)cc1OC (stereo unspecified)
Response line: 91.4

Prompt line: GET /values?readout=growth inhibition&system=Plasmodium falciparum NF54&item= "CN1CCC(c2cc(-c3ccncc3)c(-c3ccc(F)cc3)[nH]2)CC1"
Response line: 72.9

Prompt line: Test system Plasmodium falciparum NF54; read-out growth inhibition; what value for COC(=O)C1=C(C)NC(C)=C(C(=O)OC(C)C)C1c1cccc2nonc12 (stereo unspecified) ?
Response line: 42

----------
System: Plasmodium falciparum NF54
assay.procedure: growth inhibition relative to untreated control; higher = more inhibition
particulars: 5 µM; minimal medium (MM); 72 h
readout.label: growth inhibition (%)
Your answer is read as %, so omit the unit and give the number.

> print(dat)
                                   molecule  result.number
1  CCC(NC(=O)c1ccccc1NC(=O)c1ccc(C)cc1)C(=O)OC (configuration not stated)           91.3
2  CCn1ncc2c(NC3CCOCC3)c(CNC(=O)c3ccnn3C)c(C)nc21           91.4
3  CS(=O)(=O)c1cccc(-c2cnc3[nH]cc(-c4ccc(CCC(=O)O)cc4)c3c2)c1           86.2
4  COc1ccccc1C(C)NCC(=O)Nc1cc(C(F)(F)F)ccc1Cl (configuration not stated)             88
5       Cc1cc(Nc2ccc(C(F)(F)F)cc2)n2ccnc2n1           94.4

Prompt line: Endpoint output: growth inhibition of O=C1N(Cc2cc3ccccc3s2)CC2CN(Cc3ccccc3)CCN12 (configuration not stated) . Value?
Response line: 94.8

Prompt line: Recorded growth inhibition for "O=C(c1ccco1)N(CCCn1ccnc1)c1nc2c(Cl)cccc2s1" , please?
Response line: 92.8

Prompt line: What growth inhibition value was documented for this molecule, "CCOC(=O)c1c(NC(=O)c2c(F)c(F)c(F)c(F)c2F)sc(C(N)=O)c1C" ?
Response line: 13.1

Prompt line: For the molecule shown here, "C[C@]1(COc2ccc(N3CCC(Oc4ccc(OC(F)(F)F)cc4)CC3)cc2)Cn2cc([N+](=O)[O-])nc2O1" , give the reported growth inhibition.
Response line: 9.3

Prompt line: Need growth inhibition of "NCC(=O)N1CCn2c(nc(-c3ccccc3)c2Nc2ccc3c(c2)OCO3)C1" , thanks.
Response line: 93.2

Prompt line: May I ask what growth inhibition has been recorded for CCC(Sc1nc2ccccc2o1)C(=O)Nc1nccs1 (configuration not stated) ?
Response line: 3.39

Prompt line: Fill in the blank: the reported growth inhibition of "CC(C)(C)OC(=O)N1CCN(c2cc(-c3ccc(Oc4ccccc4)cc3)n[nH]2)CC1" is ____.
Response line: 16.8

Prompt line: Can you look up the measured growth inhibition of "CCCNC(=O)N1CCC2(CC1)CC(=O)c1cc(C)ccc1O2" for me?
Response line: 84.9

Prompt line: Look up growth inhibition: "CCc1c(C)nc(-n2nc(C)cc2NC(=O)c2ccccc2SC)[nH]c1=O"
Response line: 79.9

Prompt line: Look up growth inhibition for this molecule: "O[C@@H](c1cc(C(F)(F)F)nc2c(C(F)(F)F)cccc12)[C@H]1CCCCN1"
Response line: 85.5
